- method summary: Pharmacokinetic study in Beagle dogs
- Format: in vivo
- particulars: dog, plasma, iv, I.V. (0.5 mg/kg), read-out: Vdss

smiles record	unit info	Vd
[2H]C([2H])([2H])CC(=O)c1cnc(NC(=O)C2CC2)cc1Nc1nccc(-c2ncn(C([2H])([2H])[2H])n2)c1OC	L/kg	8.37

---

- method summary: Pharmacokinetic study in cynomolgus monkeys
- Assay type: in vivo
- particulars: cynomolgus monkey, plasma, iv, I.V. (1 mg/kg), read-out: C0 or Cmax (C0)
Entries and their Cmax values follow.
measurement type: Cmax (ng/mL)

compound	numeric value
[2H]C([2H])([2H])CC(=O)c1cnc(Nc2cccc(C#N)n2)cc1Nc1cccc(-c2ncn(C([2H])([2H])[2H])n2)c1OC [Example 198]	667
[2H]C([2H])([2H])CC(=O)c1cnc(NC(=O)C2CC2)cc1Nc1cccc(-c2ncn(C([2H])([2H])[2H])n2)c1OC [Example 195]	1290
[2H]C([2H])([2H])CC(=O)c1cnc(NC(=O)C2CC2)cc1Nc1nccc(-c2ncn(C([2H])([2H])[2H])n2)c1OC [Example 200]	677
[2H]C([2H])([2H])CC(=O)c1cnc(Nc2ccc(C(C)(C)O)c(F)n2)cc1Nc1nccc(-c2ncn(C([2H])([2H])[2H])n2)c1OC [Example 201]	849
[2H]C([2H])([2H])CC(=O)c1cnc(Nc2ccc(C(O)(C([2H])([2H])[2H])C([2H])([2H])[2H])c(F)n2)cc1Nc1ncccc1S(C)(=O)=O [Example 203]	787

---

Entries and their Vd values follow.
- method summary: Pharmacokinetic study in cynomolgus monkeys
- Assay type: in vivo
- particulars: cynomolgus monkey, plasma, iv, I.V. (1 mg/kg), read-out: Vdss

smiles record	Vd, L/kg
[2H]C([2H])([2H])CC(=O)c1cnc(Nc2ccc(C(O)(C([2H])([2H])[2H])C([2H])([2H])[2H])c(F)n2)cc1Nc1ncccc1S(C)(=O)=O	0.931
[2H]C([2H])([2H])CC(=O)c1cnc(NC(=O)C2CC2)cc1Nc1cccc(-c2ncn(C([2H])([2H])[2H])n2)c1OC	0.624
[2H]C([2H])([2H])CC(=O)c1cnc(Nc2cccc(C#N)n2)cc1Nc1cccc(-c2ncn(C([2H])([2H])[2H])n2)c1OC	1.94
[2H]C([2H])([2H])CC(=O)c1cnc(NC(=O)C2CC2)cc1Nc1nccc(-c2ncn(C([2H])([2H])[2H])n2)c1OC	1.45

---

- target: TYK2 (JH2 domain) (Homo sapiens (Human), UniProt P29597)
- Sequence (P29597 589-875): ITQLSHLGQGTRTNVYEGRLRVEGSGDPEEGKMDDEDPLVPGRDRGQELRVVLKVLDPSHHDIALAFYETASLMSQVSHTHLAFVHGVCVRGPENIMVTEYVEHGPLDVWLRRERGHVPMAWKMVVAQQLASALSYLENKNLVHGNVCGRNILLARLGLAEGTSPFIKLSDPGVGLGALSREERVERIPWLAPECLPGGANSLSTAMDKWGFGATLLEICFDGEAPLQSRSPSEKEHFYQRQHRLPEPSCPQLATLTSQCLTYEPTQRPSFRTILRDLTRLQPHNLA
- method summary: TYK2 JH2 domain binding assay (DiscoverX KINOMEscan)
- particulars: 11-point 3-fold dilution, duplicate

molecule	Kd
[2H]C([2H])([2H])NC(=O)c1nnc(C=C(C)C)cc1Nc1cccc(-c2ncn(C)n2)c1OC	5 to 10 nM
COc1c(Nc2cc(NC(=O)C(C)C)ncc2C(=O)C2CC2)cccc1-c1ncn(C)n1	≤ 1 nM
COc1c(Nc2cc(Nc3ccccn3)ncc2C(=O)C2CC2)cccc1-c1ncn(C)n1	≤ 1 nM
COc1c(Nc2cc(NC(=O)C3CC3)nnc2C(=O)C(F)F)cccc1-c1ncn(C)n1	1 to 5 nM
[2H]C([2H])([2H])NC(=O)c1nnc(N2CCN(C(C)C3CC3)C2=O)cc1Nc1cccc(-c2ncn(C)n2)c1OC (stereo not shown)	≤ 1 nM
[2H]C([2H])([2H])NC(=O)c1nnc(N2CCC3(CC3)C2=O)cc1Nc1cccc(-c2ncn(C)n2)c1OC	≤ 1 nM
[2H]C([2H])([2H])NC(=O)c1nnc(N2CCN(C(C)COC)C2=O)cc1Nc1cccc(-c2ncn(C)n2)c1OC (stereo not shown)	≤ 1 nM
COc1c(Nc2cc(NC(=O)C3CC3)nc3c2C(=O)NC3)cccc1-c1ncn(C)n1	5 to 10 nM
[2H]C([2H])([2H])NC(=O)c1nnc(N2CCN(C(C)C)C2=O)cc1Nc1cccc(-c2ncn(C([2H])([2H])[2H])n2)c1OC	≤ 1 nM
[2H]C([2H])([2H])NC(=O)c1nnc(NC(=O)N2CC(C)(C)C2)cc1Nc1cccc(-c2ncn(C)n2)c1OC	≤ 1 nM
[2H]C([2H])([2H])NC(=O)c1nnc(N2CCN(CC3CC3)C2=O)cc1Nc1cccc(-c2ncn(C)n2)c1OC	≤ 1 nM
[2H]C([2H])([2H])NC(=O)c1nnc(NC(=O)N2CCC2)cc1Nc1cccc(-c2ncn(C)n2)c1OC [Example 50]	≤ 1 nM
[2H]C([2H])([2H])NC(=O)c1nnc(N2CCN(C(CC)CC)C2=O)cc1Nc1cccc(-c2ncn(C)n2)c1OC	≤ 1 nM
[2H]C([2H])([2H])CC(=O)c1cnc(Nc2cccc(C#N)n2)cc1Nc1nccc(-c2ncn(C([2H])([2H])[2H])n2)c1OC	≤ 1 nM
CNC(=O)c1nnc(N2CCCC2=O)cc1Nc1cccc(-c2ncn(C)n2)c1OC	1 to 5 nM
[2H]C([2H])([2H])NC(=O)c1nnc(N2CCN(C(C([2H])([2H])[2H])C([2H])([2H])[2H])C2=O)cc1Nc1cccc(-c2ncn(C([2H])([2H])[2H])n2)c1OC	≤ 1 nM
CC(C)(O)c1ccc(Nc2cc(Nc3ncccc3S(C)(=O)=O)c(C(=O)C3CC3)cn2)nc1F	≤ 1 nM
[2H]C([2H])([2H])CC(=O)c1cnc(NC(=O)C2CC2)cc1Nc1nccc(-c2ncn(C([2H])([2H])[2H])n2)c1OC	≤ 1 nM
COc1c(Nc2cc(NC(=O)N3CCC3)ncc2C(=O)C2CC2)cccc1-c1ncn(C)n1	≤ 1 nM
[2H]C([2H])([2H])NC(=O)c1nnc(N2CCN(C3CCC3)C2=O)cc1Nc1cccc(-c2ncn(C)n2)c1OC	≤ 1 nM
[2H]C([2H])([2H])NC(=O)c1nnc(N2CCN(CC(F)F)C2=O)cc1Nc1cccc(-c2ncn(C)n2)c1OC	≤ 1 nM
[2H]C([2H])([2H])CC(=O)c1cnc(Nc2cccc(C#N)n2)cc1Nc1cccc(-c2ncn(C([2H])([2H])[2H])n2)c1OC	≤ 1 nM
COc1c(Nc2cc(N[S@+]([O-])C(C)(C)C)ncc2C(=O)C2CC2)cccc1-c1ncn(C)n1	> 10 nM
[2H]C([2H])([2H])NC(=O)c1nnc(N2CCC(C)C2=O)cc1Nc1cccc(-c2ncn(C)n2)c1OC (stereo not shown)	≤ 1 nM
[2H]C([2H])([2H])NC(=O)c1nnc(N2CCN(CC(C)C)C2=O)cc1Nc1cccc(-c2ncn(C)n2)c1OC	≤ 1 nM
[2H]C([2H])([2H])NC(=O)c1nnc(N2CCN(CC3CCCO3)C2=O)cc1Nc1cccc(-c2ncn(C)n2)c1OC (stereo not shown)	≤ 1 nM
COc1c(Nc2cc(Nc3ccncn3)ncc2C(=O)C2CC2)cccc1-c1ncn(C)n1	≤ 1 nM
[2H]C([2H])([2H])NC(=O)c1nnc(N2CCN(C(C)C#C)C2=O)cc1Nc1cccc(-c2ncn(C)n2)c1OC (stereo not shown)	≤ 1 nM

---

Entries and their pKd values follow.
- target: TYK2 (JH2 domain) (Homo sapiens (Human))
- method summary: TYK2 JH2 domain binding assay (DiscoverX KINOMEscan)
- particulars: 11-point 3-fold dilution, duplicate
pKd: −log10 of the molar value.
measurement type: pKd

compound	result
[2H]C([2H])([2H])NC(=O)c1nnc(N2CCN(C(C([2H])([2H])[2H])C([2H])([2H])[2H])C2=O)cc1Nc1cccc(-c2ncn(C)n2)c1OC	≥ 9.00
[2H]C([2H])([2H])NC(=O)c1nnc(N2CCN(C3CCC3O)C2=O)cc1Nc1cccc(-c2ncn(C)n2)c1OC (stereo not shown)	≥ 9.00
[2H]C([2H])([2H])NC(=O)c1c(Nc2cccc(-c3nnn(C)n3)c2OC)cc(NC(=O)C2CC2)nc1F	8.30 to 9.00
COc1c(Nc2cc(NC(=O)C3CC3)nnc2C(C)=O)cccc1-c1ncn(C)n1	8.30 to 9.00

---

- method summary: Pharmacokinetic study in Sprague Dawley rats
- Format: in vivo
- particulars: rat, plasma, iv, I.V. (1 mg/kg), read-out: C0 or Cmax (C0)
Define the label as y when Cmax is strictly less than 1000 ng/mL and as n in all remaining cases.

smiles record	class
[2H]C([2H])([2H])CC(=O)c1cnc(Nc2ccc(C(C)(C)O)c(F)n2)cc1Nc1cccc(-c2ncn(C([2H])([2H])[2H])n2)c1OC	n
[2H]C([2H])([2H])CC(=O)c1cnc(Nc2cccc(C#N)n2)cc1Nc1cccc(-c2ncn(C([2H])([2H])[2H])n2)c1OC	n
[2H]C([2H])([2H])CC(=O)c1cnc(NC(=O)C2CC2)cc1Nc1cccc(-c2ncn(C([2H])([2H])[2H])n2)c1OC	n
[2H]C([2H])([2H])CC(=O)c1cnc(Nc2ccc(C(C)(C)O)c(F)n2)cc1Nc1nccc(-c2ncn(C([2H])([2H])[2H])n2)c1OC	n
[2H]C([2H])([2H])CC(=O)c1cnc(Nc2cccc(C#N)n2)cc1Nc1nccc(-c2ncn(C([2H])([2H])[2H])n2)c1OC	y

Data origin, for the record: patent US11053219B2
